// data source = ChEMBL document CHEMBL1909565

- targetOrTestSystem: Neuronal acetylcholine receptor subunit alpha-7 (Rattus norvegicus)
- Sequence (Q05941 whole entry): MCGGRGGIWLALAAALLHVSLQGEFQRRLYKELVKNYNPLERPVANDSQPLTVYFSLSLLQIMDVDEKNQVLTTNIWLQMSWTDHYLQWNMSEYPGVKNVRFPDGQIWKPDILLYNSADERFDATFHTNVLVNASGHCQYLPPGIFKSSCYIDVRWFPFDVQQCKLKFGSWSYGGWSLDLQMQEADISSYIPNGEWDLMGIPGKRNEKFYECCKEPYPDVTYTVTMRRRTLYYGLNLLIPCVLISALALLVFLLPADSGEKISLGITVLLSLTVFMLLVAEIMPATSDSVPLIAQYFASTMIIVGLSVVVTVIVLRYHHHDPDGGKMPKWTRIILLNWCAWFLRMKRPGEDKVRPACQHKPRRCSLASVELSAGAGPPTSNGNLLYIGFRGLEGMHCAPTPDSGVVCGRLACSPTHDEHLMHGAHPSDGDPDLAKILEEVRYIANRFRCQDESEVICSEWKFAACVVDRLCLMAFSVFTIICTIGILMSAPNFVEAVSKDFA
- procedureDetails: Displacement of [3H]-methyllycaconitine from alpha7 nAChR in rat hippocampal membranes after 2 hrs by liquid scintillation counting
metric: pKi
Bear in mind: pKi is minus log10 of a mol/L concentration; give just that figure.

Entry under test: O=C1CC(c2ccccc2)=NCC2(CN3CCC2CC3)N1 (stereo unspecified) . Its pKi was 6.85

Entry under test: O=C1CC(c2ccc(Br)s2)=NCC2(CN3CCC2CC3)N1 (stereo unspecified) . Its pKi was 7.11

Entry under test: Nc1c(C2=NC3(CN2)CN2CCC3CC2)oc2ccccc12 (stereo unspecified) . Its pKi was 6.92

Entry under test: COc1cccc(C2=NCC3(CN4CCC3CC4)NC(=O)C2)c1 (stereo unspecified) . Its pKi was 7.06

Entry under test: COc1ccc(/C=C2\CCCN=C2c2cccnc2)c(OC)c1 . Its pKi was 5.89

Entry under test: Oc1c(C2=NC3(CN2)CN2CCC3CC2)oc2ccccc12 (stereo unspecified) . Its pKi was 8.14

Entry under test: COc1ccccc1C1=NCC2(CN3CCC2CC3)NC(=O)C1 (stereo unspecified) . Its pKi was 6.96

Entry under test: O=C1CC(c2cccs2)=NCC2(CN3CCC2CC3)N1 (stereo unspecified) . Its pKi was 7.24

Entry under test: O=C1CC(c2ccco2)=NCC2(CN3CCC2CC3)N1 (stereo unspecified) . Its pKi was 6.82

Entry under test: COc1ccc(C2=NCC3(CN4CCC3CC4)NC(=O)C2)cc1 (stereo unspecified) . Its pKi was 7.38

Entry under test: Oc1ccccc1C1=NC2(CN1)CN1CCC2CC1 (stereo unspecified) . Its pKi was 6.54

====

Would you kindly list inhibition for each of these compounds?
- targetOrTestSystem: Neuronal acetylcholine receptor; alpha3/beta4 (Homo sapiens, UniProt P30926+P32297)
- procedureDetails: Displacement of [3H]-epibatidine from alpha3beta4 nAChR in human SH-SY5Y cellular membranes at 5 uM after 2 hrs by liquid scintillation counting
- Format: cell membranes
Field: numeric (%). Do not append units.

inhibition value, target or system Neuronal acetylcholine receptor; alpha3/beta4 (Homo sapiens, UniProt P30926+P32297), for O=C1CC(c2ccc(Br)s2)=NCC2(CN3CCC2CC3)N1 (stereo not given) : 89

inhibition value, target or system Neuronal acetylcholine receptor; alpha3/beta4 (Homo sapiens, UniProt P30926+P32297), for Nc1c(C2=NC3(CN2)CN2CCC3CC2)oc2ccccc12 (stereo not given) : 47

inhibition value, target or system Neuronal acetylcholine receptor; alpha3/beta4 (Homo sapiens, UniProt P30926+P32297), for c1ccc2oc(C3=NC4(CN3)CN3CCC4CC3)cc2c1 (stereo not given) : 13

inhibition value, target or system Neuronal acetylcholine receptor; alpha3/beta4 (Homo sapiens, UniProt P30926+P32297), for Oc1c(C2=NC3(CN2)CN2CCC3CC2)oc2ccccc12 (stereo not given) : 55

inhibition value, target or system Neuronal acetylcholine receptor; alpha3/beta4 (Homo sapiens, UniProt P30926+P32297), for COc1ccc(C2=NCC3(CN4CCC3CC4)NC(=O)C2)cc1 (stereo not given) : 63

====

- targetOrTestSystem: Neuronal acetylcholine receptor; alpha4/beta2 (Rattus norvegicus, UniProt P09483+P12390)
- Sequence (P09483 whole entry): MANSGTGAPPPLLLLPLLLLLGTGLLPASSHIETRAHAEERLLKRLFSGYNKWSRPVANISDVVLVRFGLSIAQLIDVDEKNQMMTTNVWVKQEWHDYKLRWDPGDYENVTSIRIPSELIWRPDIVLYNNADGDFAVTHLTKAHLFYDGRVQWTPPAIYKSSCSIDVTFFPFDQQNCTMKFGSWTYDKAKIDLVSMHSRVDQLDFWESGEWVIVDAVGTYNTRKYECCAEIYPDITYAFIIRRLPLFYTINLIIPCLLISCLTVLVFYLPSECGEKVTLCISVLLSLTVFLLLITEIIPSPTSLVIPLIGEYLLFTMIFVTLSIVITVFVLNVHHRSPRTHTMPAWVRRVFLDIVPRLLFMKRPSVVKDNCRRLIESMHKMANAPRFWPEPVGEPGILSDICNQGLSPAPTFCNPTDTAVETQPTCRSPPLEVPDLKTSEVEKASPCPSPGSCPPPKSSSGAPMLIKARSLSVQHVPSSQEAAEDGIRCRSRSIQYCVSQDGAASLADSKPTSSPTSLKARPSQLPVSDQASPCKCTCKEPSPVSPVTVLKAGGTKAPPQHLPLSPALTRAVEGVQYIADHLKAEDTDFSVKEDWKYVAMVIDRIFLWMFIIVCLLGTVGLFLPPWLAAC
- Sequence (P12390 whole entry): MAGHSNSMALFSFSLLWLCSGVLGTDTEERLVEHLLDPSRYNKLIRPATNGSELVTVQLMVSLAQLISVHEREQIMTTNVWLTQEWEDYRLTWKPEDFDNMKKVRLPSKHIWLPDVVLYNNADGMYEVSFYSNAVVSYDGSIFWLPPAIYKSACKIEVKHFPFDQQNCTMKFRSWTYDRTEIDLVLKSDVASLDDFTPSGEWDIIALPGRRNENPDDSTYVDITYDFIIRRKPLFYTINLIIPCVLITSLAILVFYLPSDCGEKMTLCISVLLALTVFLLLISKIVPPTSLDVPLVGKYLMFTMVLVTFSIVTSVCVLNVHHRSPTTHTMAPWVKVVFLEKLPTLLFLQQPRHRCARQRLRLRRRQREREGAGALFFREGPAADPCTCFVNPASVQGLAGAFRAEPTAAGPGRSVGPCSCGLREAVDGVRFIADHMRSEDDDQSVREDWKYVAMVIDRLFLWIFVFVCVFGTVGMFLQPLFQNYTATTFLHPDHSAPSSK
- procedureDetails: Displacement of [3H]-epibatidine from alpha4beta2 nAChR in rat cortical membranes after 2 hrs by liquid scintillation counting
metric: Ki

Entry under test: COc1ccc(/C=C2\CCCN=C2c2cccnc2)c(OC)c1 . Its Ki was 51 nM
